We begin with a simple list: items and their reported AC50.
# TARGET: Cytochrome P450 2D6 (Homo sapiens);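 further: CYP2D6 member of a cytochrome P450 panel assay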
# Sequence (P10635 whole entry): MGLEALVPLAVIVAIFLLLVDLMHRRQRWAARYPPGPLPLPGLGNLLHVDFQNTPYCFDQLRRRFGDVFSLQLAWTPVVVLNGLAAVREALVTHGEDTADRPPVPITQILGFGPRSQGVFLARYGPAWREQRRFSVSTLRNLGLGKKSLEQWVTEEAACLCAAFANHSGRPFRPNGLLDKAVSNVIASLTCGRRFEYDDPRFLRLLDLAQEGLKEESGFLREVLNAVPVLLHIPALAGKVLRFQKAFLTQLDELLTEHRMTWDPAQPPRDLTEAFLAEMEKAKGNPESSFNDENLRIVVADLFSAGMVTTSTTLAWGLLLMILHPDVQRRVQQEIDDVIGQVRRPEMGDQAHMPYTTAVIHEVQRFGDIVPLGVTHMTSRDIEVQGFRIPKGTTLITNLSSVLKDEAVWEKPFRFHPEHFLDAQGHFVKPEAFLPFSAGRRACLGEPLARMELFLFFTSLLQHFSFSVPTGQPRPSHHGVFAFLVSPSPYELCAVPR
QUANTITY: AC50

COMPOUND	OBSERVED RESULT
O=c1cnc2cnc(N3CCOCC3)nc2n1Cc1cccs1	25.1 µM (inconclusive)
CC(=O)c1cc(NC(=O)c2ccccc2)c(=O)oc1/C=C/N(C)C	0.178 µM (inconclusive)
Cc1cccc(C)c1NC(=O)/C(C#N)=C/c1cccs1	6.31 µM (inconclusive)
CCC(C)C(NC(=O)OCc1ccccc1)C(=O)OCN1C(=O)c2ccccc2C1=O (stereo unspecified)	0.631 µM (inconclusive)
COC(=O)N1CCC2(CC1)CN(c1ccccn1)C2	10 µM (inconclusive)
COC(=O)C1=C(NC(=O)c2ccc(C)c(C)c2)CCS1	31.6 µM (inconclusive)

====

Reported EC50 values for a set of compounds
# TARGET: 5-hydroxytryptamine receptor 5A (Homo sapiens, UniProt P47898)
# Sequence (P47898 whole entry): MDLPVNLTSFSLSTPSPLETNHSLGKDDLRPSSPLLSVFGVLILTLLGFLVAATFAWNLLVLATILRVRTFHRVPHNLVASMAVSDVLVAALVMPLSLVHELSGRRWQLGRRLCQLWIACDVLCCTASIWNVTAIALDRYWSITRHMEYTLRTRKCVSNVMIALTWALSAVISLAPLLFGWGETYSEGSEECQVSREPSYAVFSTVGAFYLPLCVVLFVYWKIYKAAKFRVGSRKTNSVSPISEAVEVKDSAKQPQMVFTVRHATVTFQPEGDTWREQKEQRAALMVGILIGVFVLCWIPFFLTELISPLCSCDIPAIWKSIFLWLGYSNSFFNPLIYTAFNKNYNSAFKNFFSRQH
# TEST PROTOCOL: Counterscreen for agonists of OPRM1-OPRD1 heterodimerization: luminescence-based cell-based high throughput dose response assay to identify agonists of 5-hydroxytryptamine (serotonin) 5A receptor (HTR5A). [Related pubchem assays (depositor defined):AID504326, AID504355, AID504692, AID504904, AID504905]
# Type: functional
Active and inactive are the calls of the source.

COMPOUND	EC50
O=C(c1sc2ccccc2c1Cl)N(Cc1ccco1)C1CCS(=O)(=O)C1 (stereo unspecified)	> 92.5 µM (inactive)
COC(=O)C1=C(C)N(CCCC(=O)O)C(=O)NC1c1ccccc1OS(=O)(=O)c1ccc([N+](=O)[O-])cc1 (stereo unspecified)	> 92.4 µM (inactive)
COC(=O)C1=C(C)N(CCCC(=O)O)C(=O)NC1c1ccccc1OS(=O)(=O)c1ccccc1[N+](=O)[O-] (stereo unspecified)	> 92.5 µM (inactive)
Cc1cccc(NC(=S)NC(=O)CCc2ccccc2)c1	> 92.5 µM (inactive)
COc1ccc(C(CNc2ncnc3sc(C)c(C)c23)N(C)C)cc1 (stereo unspecified)	> 92.4 µM (inactive)
CN(C)C(CNC(=O)c1ccc(Br)cc1)c1ccco1 (stereo unspecified)	> 92.5 µM (inactive)

====

IC50 for assorted compounds
# TARGET: Induced myeloid leukemia cell differentiation protein Mcl-1 (Homo sapiens)
# Sequence (Q07820 whole entry): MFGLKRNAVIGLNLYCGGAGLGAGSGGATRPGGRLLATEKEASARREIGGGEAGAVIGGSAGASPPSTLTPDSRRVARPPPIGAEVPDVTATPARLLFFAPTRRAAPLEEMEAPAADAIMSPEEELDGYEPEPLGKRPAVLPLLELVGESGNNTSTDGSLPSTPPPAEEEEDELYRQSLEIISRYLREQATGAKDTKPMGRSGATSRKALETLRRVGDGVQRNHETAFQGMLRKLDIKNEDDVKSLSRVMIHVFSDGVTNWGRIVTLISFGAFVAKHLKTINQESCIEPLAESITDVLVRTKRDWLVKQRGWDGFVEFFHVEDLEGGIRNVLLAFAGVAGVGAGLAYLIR
# Type: functional
Activity calls are given as the source filed them.

COMPOUND	TARGET	IC50
CCn1cc(C(=O)NCc2ccc3c(c2)OCO3)c2cc(OC)c(OC)cc2c1=O	Induced myeloid leukemia cell differentiation protein Mcl-1 (Homo sapiens)	7.31 µM (not active)
CC(/C=N\Nc1n[nH]c2c3cccc(C)c3nc-2n1)=C\c1ccco1	Induced myeloid leukemia cell differentiation protein Mcl-1 (Homo sapiens)	3.46 µM (active)
N=C1/C(=C\c2ccc(-c3cccc(C(=O)O)c3)o2)C(=O)N=C2SC=C(c3ccccc3)N12	Induced myeloid leukemia cell differentiation protein Mcl-1 (Homo sapiens)	1.55 µM (active)
O=C(O)CCn1cc(C=C2C(=O)NC(=S)NC2=O)c(-c2cc3ccccc3oc2=O)n1	Induced myeloid leukemia cell differentiation protein Mcl-1 (Homo sapiens)	3.42 µM (active)
O=C(Cc1csc(N2CCOCC2)n1)N/N=C/c1ccc(O)c(O)c1O	Induced myeloid leukemia cell differentiation protein Mcl-1 (Homo sapiens)	3.52 µM (active)
COc1cc(/C=C/c2nc3ccccc3c(=O)n2-c2cccc(O)c2)ccc1O	Induced myeloid leukemia cell differentiation protein Mcl-1 (Homo sapiens)	8.49 µM (active)
O=C(N/N=C/c1ccc(O)c(O)c1)/C(O)=C\C1=NC2(CCCC2)Cc2ccccc21	Induced myeloid leukemia cell differentiation protein Mcl-1 (Homo sapiens)	3.56 µM (active)
O=C(O)CCCN1C(=O)/C(=C\c2ccc(-c3nc4ccccc4s3)o2)SC1=S	Induced myeloid leukemia cell differentiation protein Mcl-1 (Homo sapiens)	1.38 µM (active)
Cc1c(NS(=O)(=O)c2cc(NC(=O)CCN3CCCC(C)C3)ccc2Cl)c(=O)n(-c2ccccc2)n1C (stereo not given)	Induced myeloid leukemia cell differentiation protein Mcl-1 (Homo sapiens)	4.67 µM (not active)
CC1(C)CC(=O)C(=CNc2cccc(/N=C/C3=C(O)CC(C)(C)CC3=O)n2)C(=O)C1	Induced myeloid leukemia cell differentiation protein Mcl-1 (Homo sapiens)	1.31 µM (not active)

The origin of these recorded values is ChEMBL document CHEMBL1201862.
